experimental readout: pKi
When answering, recall that pKi equals minus log10 of the concentration in mol/L, and write that number alone.

[Q] Entry CN(C)CCCC1(c2ccc(F)cc2)OCc2cc(CCc3ccccc3)ccc21 (stereo not given) , system Sodium-dependent serotonin transporter (Rattus norvegicus): what pKi was measured?
[A] 7.42

[Q] Entry CN(C)CCCC1(c2ccc(F)cc2)OCc2cc(-c3cc(F)cc(F)c3)ccc21 (stereo not given) , system Sodium-dependent serotonin transporter (Rattus norvegicus): what pKi was measured?
[A] 6.97

[Q] Entry CN(C)CCCC1(c2ccc(F)cc2)OCc2cc(-c3cccc(F)c3)ccc21 (stereo not given) , system Sodium-dependent serotonin transporter (Rattus norvegicus): what pKi was measured?
[A] 7.66

[Q] Entry CN(C)CCC[C@]1(c2ccc(F)cc2)OCc2cc(Br)ccc21 , system Sodium-dependent serotonin transporter (Rattus norvegicus): what pKi was measured?
[A] 7.63

[Q] Entry CN(C)CCCC1(c2ccc(F)cc2)OCc2c(Br)cccc21 (stereo not given) , system Sodium-dependent serotonin transporter (Rattus norvegicus): what pKi was measured?
[A] 8.41

[Q] Entry CN(C)CCCC1(c2ccc(F)cc2)OCc2cc(-c3ccccc3)ccc21 (stereo not given) , system Sodium-dependent serotonin transporter (Rattus norvegicus): what pKi was measured?
[A] 7.40

[Q] Entry CN(C)CCCC1(c2ccc(F)cc2)OCc2cc(-c3cccc(Cl)c3)ccc21 (stereo not given) , system Sodium-dependent serotonin transporter (Rattus norvegicus): what pKi was measured?
[A] 7.21

[Q] Entry CN(C)CCCC1(c2ccc(F)cc2)OCc2c(-c3ccccc3)cccc21 (stereo not given) , system Sodium-dependent serotonin transporter (Rattus norvegicus): what pKi was measured?
[A] 8.29

[Q] Entry CN(C)CCCC1(c2ccc(F)cc2)OCc2cc(/C=C/c3ccccc3)ccc21 (racemic) , system Sodium-dependent serotonin transporter (Rattus norvegicus): what pKi was measured?
[A] 8.03

[Q] Entry CN(C)CCCC1(c2ccc(F)cc2)OCc2cc(-c3cccc(C#N)c3)ccc21 (stereo not given) , system Sodium-dependent serotonin transporter (Rattus norvegicus): what pKi was measured?
[A] 8.17
